Every entry's value here was drawn from paper PMC6792352.

# CC50 at 24 h values compiled below
- protocol_description: in vitro
- recorded_conditions: rat, gh3-tre-luc cells, AC50 (uM) modified / 1000
measurement_kind: CC50 at 24 h

| compound | observed_value |
| --- | --- |
| C[N+]1([O-])CCOCC1 [4-Methylmorpholine 4-oxide] | > 90 µM |
| CCOC(=O)OCC [Diethyl carbonate] | > 100 µM |
| NCC1(Cc2noc(=O)[nH]2)CCCCC1 | > 90 µM |
| Cc1cccc(C)c1Nc1ncccc1C(=O)O | > 50 µM |
| Cc1ccc(S(=O)(=O)NC(=O)NC2CCCC2)cc1 [Tolpentamide] | > 50 µM |
| C=C(C#N)CCC#N | > 90 µM |
